List of Anti-CD28 Fab signal in the presence of CD28 values.
molecular target: Anti-CD28 Fab (SEQ ID NOs: 696, 697); assay: phage binding ELISA; Fab-coated wells pre-incubated with CD28 antigen as competitor, anti-M13 HRP detection;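 further: crude clonal phage supernatants added without washing after the CD28 pre-incubation, with wells given blocking buffer only (no CD28) as the reference, bound phage read after washing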
Sequence (VH, as listed by the source, chain 1 of 2): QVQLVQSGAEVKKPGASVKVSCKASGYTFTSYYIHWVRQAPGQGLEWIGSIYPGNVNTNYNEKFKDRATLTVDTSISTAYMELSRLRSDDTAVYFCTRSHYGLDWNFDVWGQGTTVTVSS
Sequence (VL, as listed by the source, chain 2 of 2): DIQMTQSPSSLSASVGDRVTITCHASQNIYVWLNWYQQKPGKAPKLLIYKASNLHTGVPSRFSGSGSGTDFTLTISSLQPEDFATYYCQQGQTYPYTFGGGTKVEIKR
Where no end group is shown, it is not given here.
REPORTED_ENDPOINT: Anti-CD28 Fab signal in the presence of CD28

[
  {
    "BINDER": "SCAAVFSYSWPMCF [Phage-1420]",
    "NUMERIC_VALUE": 0.06
  },
  {
    "BINDER": "TCAAGATYEWPYCF [Phage-1427]",
    "NUMERIC_VALUE": 0.06
  },
  {
    "BINDER": "MCAAGATYPWPLCL (cysteine pairing not given here; also: fused to phage pIII protein) [Phage-1417]",
    "NUMERIC_VALUE": 0.07
  },
  {
    "BINDER": "TCAAGAHYTWPECF [Phage-1419]",
    "NUMERIC_VALUE": 0.07
  },
  {
    "BINDER": "MCAAGAHYTWPTCL (cysteine pairing not given here; also: fused to phage pIII protein) [Phage-1424]",
    "NUMERIC_VALUE": 0.07
  },
  {
    "BINDER": "MCSAGANYPWPWCL [Phage-1426]",
    "NUMERIC_VALUE": 0.08
  },
  {
    "BINDER": "TCAAGATYEWPTCL [Phage-1430]",
    "NUMERIC_VALUE": 0.08
  },
  {
    "BINDER": "TCAAGAAYTWPACF [Phage-1429]",
    "NUMERIC_VALUE": 0.06
  },
  {
    "BINDER": "LCAEFFNYPWPLCL [Phage-1422]",
    "NUMERIC_VALUE": 0.06
  },
  {
    "BINDER": "TCAAGATYSWPWCF [Phage-1418]",
    "NUMERIC_VALUE": 0.07
  },
  {
    "BINDER": "QCSAGAAWPWPFCL [Phage-1423]",
    "NUMERIC_VALUE": 0.08
  }
]
